Target: human Notch2 on U-87 MG cells (human, UniProt Q04721 26-2471)
Sequence (Q04721 26-2471): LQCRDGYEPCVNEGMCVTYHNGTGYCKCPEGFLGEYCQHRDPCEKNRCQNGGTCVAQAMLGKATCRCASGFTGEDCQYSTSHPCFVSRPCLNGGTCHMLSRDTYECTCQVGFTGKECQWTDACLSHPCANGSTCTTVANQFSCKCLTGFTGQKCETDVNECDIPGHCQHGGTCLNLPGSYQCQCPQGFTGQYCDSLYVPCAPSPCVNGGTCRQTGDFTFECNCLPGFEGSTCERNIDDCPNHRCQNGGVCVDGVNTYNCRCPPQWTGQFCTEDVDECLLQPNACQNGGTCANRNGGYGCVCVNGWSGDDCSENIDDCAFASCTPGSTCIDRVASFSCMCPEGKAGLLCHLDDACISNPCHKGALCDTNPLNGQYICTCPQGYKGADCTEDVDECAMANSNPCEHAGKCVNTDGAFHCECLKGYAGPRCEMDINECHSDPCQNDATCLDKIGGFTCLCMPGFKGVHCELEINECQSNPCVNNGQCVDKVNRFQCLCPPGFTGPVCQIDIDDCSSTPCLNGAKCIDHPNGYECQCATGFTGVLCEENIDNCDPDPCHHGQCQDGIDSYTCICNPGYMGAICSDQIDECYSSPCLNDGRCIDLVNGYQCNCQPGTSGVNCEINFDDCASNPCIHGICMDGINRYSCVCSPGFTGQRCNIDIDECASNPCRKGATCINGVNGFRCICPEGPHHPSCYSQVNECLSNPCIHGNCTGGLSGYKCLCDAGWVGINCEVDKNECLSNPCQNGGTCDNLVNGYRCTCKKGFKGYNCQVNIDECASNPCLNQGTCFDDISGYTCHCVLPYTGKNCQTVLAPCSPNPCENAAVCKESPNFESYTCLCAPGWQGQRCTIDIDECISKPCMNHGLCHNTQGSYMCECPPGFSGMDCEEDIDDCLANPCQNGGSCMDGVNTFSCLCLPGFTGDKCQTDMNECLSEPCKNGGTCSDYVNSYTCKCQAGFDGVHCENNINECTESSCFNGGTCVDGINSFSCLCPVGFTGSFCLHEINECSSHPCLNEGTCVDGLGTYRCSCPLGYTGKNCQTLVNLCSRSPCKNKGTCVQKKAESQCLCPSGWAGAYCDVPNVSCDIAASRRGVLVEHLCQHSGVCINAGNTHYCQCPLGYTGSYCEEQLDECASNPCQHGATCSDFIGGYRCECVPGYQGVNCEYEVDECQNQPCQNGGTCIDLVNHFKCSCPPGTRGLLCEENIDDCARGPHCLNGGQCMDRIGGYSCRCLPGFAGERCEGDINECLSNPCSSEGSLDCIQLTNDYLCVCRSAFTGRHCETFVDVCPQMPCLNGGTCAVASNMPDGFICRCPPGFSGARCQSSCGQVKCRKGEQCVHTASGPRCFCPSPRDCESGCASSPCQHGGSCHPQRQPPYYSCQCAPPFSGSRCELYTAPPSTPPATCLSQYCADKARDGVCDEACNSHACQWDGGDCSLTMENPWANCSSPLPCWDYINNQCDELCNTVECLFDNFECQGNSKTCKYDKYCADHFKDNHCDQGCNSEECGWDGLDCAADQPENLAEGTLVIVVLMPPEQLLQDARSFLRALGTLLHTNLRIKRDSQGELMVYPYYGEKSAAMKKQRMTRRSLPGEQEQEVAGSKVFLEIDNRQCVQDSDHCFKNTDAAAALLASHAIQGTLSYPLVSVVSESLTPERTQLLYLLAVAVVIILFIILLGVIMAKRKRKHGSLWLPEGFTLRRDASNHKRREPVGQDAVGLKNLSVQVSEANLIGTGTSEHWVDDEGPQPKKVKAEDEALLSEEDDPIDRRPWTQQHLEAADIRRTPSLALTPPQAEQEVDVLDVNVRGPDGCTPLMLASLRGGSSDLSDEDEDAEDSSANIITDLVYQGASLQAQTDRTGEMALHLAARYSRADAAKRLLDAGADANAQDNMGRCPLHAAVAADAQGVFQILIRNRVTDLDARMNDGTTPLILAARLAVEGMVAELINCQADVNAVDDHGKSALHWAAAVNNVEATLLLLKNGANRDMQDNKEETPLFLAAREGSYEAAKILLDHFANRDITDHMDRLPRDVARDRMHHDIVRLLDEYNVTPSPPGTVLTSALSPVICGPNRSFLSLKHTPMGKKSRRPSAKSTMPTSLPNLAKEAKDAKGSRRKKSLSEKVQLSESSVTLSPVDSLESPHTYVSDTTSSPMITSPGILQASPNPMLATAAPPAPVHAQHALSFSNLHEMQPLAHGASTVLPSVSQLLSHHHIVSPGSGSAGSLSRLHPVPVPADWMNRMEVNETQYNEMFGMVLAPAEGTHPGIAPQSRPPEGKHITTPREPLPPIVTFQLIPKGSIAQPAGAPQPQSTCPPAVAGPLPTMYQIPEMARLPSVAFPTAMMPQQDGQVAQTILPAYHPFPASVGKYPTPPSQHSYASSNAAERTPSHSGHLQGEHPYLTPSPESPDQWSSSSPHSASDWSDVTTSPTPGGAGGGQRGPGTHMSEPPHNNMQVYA
Test: cell-based or functional assay
Recorded Jagged1 IC50 by entry

binder	Jagged1 IC50
hu1B2.v101 (antibody, V domains shown, Human IgG1 backbone) VH: EVQLVESGGGLVQPGGSLKLSCAVSGFTFSDFYMEWVRQASGKGLEWVAAQRNKANDFSIVYSASVKDRFTISRDDSKSTLYLQMNSLKTEDTAVYYCSRDGGRWGLDAWGQGTLVTVSS VL: DIQMTQSPSSVSASVGDRVTITCQTSEDIYSGLAWYQQKPGKSPKLLIYGASRLQDGVPSRFSGSGSGTDYTLTISSLQPEDFATYYCQQGFKYPLTFGGGTKVEIK	3.02 nM
rb.2430 (rabbit/human chimeric anti-Notch2 antibody 2430) (antibody, V domains shown) VH: QSVEESGGRLVTPGTPLTLTCTVSGFSLSSYDMSWVRQAPGKGLEWIGIIQAGSNTLFYASWAKGRFTISKTSTTVDLKITSPTTEDTATYFCARGGVIFIIGHFNLWGPGTLVTVSS VL: AQVLTQTASSVSAAVGGTVTINCQASQSVVNNRLAWYQQKPGQPPKLLMYGASTLESGVSSRFKGSGSGTQFTLTISGVQCDDAATYYCQGEFLCSSGDCVAFGGGTKVEIK	1.03 nM
hu1B2.L1H1.DFS (antibody, V domains shown, Human IgG1 backbone; also called hu1B2.v1.DFS) VH: EVQLVESGGGLVQPGGSLKLSCAVSGFTFSDFYMEWIRQASGKGLEWIAASRNKANDFSIVYSASVKDRFTISRDTSKSTLYLQMNSLKTEDTAVYYCSRDSGRWGLDAWGQGTLVTVSS VL: DIQMTQSPSSVSASVGDRVTITCQTSEDIYSGLAWYQQKPGKSPKLLIYGASRLQDGVPSRFSGSGSGTDYTLTISSLQPEDFATYFCQQGFKYPLTFGGGTKVEIK	7.9 nM
rat.3107 (rat/human chimeric anti-Notch2 antibody 3107) (antibody, V domains shown) VH: QVQLQQSGAELAKSGSSVKISCKASGYTFSNYVIHWIKQTTGQAPEWTGYIIPGSGGTKFNEKFKGKATLTVDKSSTTAYMQLSSLTPVDTAVYYCARDGAGSFTYWGQGTLVTVSS VL: DVLMTQTPVSLPVSLGGQVSISCRSSQSLVHSDGNTYLHWFLQKPGQSPQLLIYRISNRFSGVPDRFSGSGSGTDFTLKISRVEPEDLGVYYCLQSTHFPDTFGGGTKVEIK	2.1 nM
hu1B2.v104 (antibody, V domains shown, Human IgG1 backbone; also called hu1B2.v014) VH: EVQLVESGGGLVQPGGSLKLSCAVSGFTFSDFYMEWVRQASGKGLEWVAAQRNKANDFSIVYSASVKDRFTISRDDSKSTLYLQMNSLKTEDTAVYYCSRDGGKLALDAWGQGTLVTVSS VL: DIQMTQSPSSVSASVGDRVTITCQTSEDIYSGLAWYQQKPGKSPKLLIYGASRLQDGVPSRFSGSGSGTDYTLTISSLQPEDFATYYCQQGFKYPLTFGGGTKVEIK	2.48 nM

Source: patent US20230322958A1
